I'd be grateful if you could share measured pKd for these entries.
biological target: T1, hMSLN-His-Avi (human, UniProt Q13421 296-598, single biotin on the Avi tag in the biotinylated form); test: SPR, mAb2 captured on Protein G, hMSLN-His-Avi in solution
T1 construct: Monomeric; also called human MSLN-His-Avi; hMSLN-Avi-His
T1 sequence (Q13421 other isoform, or with tags, fused parts or gaps): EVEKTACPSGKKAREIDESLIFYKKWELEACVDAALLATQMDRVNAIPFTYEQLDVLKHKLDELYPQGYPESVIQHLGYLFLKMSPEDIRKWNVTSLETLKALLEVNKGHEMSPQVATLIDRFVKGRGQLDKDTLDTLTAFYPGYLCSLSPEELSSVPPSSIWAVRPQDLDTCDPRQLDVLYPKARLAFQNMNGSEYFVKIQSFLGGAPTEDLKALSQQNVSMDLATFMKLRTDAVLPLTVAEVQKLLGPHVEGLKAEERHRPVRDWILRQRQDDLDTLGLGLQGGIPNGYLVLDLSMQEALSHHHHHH
Please express pKd as -log10 of the molar concentration.

The reported pKd of the binder FS22-172-003-AA/FS28-024-053 (bispecific antibody, human IgG1, kappa, L234A L235A, V domains shown, IgG1 mAb^2 with LALA) VH: EVQLLESGGGLVQPGGSLRLSCAASGFTLSYSSMSWVRQAPGKGLEWVSFITPSTGYTHYADSVKGRFTISRDNSKNTLYLQMNSLRAEDTAVYYCARRALVFDYWGQGTLVTVSS VL: EIVLTQSPGTLSLSPGERATLSCRASQSVSSSYLAWYQQKPGQAPRLLIYGASSRATGIPDRFSGSGSGTDFTLTISRLEPEDFAVYYCQQASSYPLTFGQGTKVEIKR was 7.33

pKd measured on FS22-172-003-AA/FS28-256-024 (bispecific antibody, human IgG1, kappa, L234A L235A, V domains shown, IgG1 mAb^2 with LALA) VH: EVQLLESGGGLVQPGGSLRLSCAASGFTFTHTYMSWVRQAPGKGLEWVSNISPTYSTTNYADSVKGRFTISRDNNKNTLYLQMNSLRAEDTAVYYCARYNAYHAALDYWGQGTLVTVSS VL: EIVLTQSPGTLSLSPGERATLSCRASQSVSSSYLAWYQQKPGQAPRLLIYGASSRATGIPDRFSGSGSGTDFTLTISRLEPEDFAVYYCQQALGYPHTFGQGTKVEIKR = 7.06

Record FS22-172-003-AA/FS28-024-051 (bispecific antibody, human IgG1, kappa, L234A L235A, V domains shown, IgG1 mAb^2 with LALA) VH: EVQLLESGGGLVQPGGSLRLSCAASGFTLSYSSMSWVRQAPGKGLEWVSFITPSTGYTHYADSVKGRFTISRDNSKNTLYLQMNSLRAEDTAVYYCARRALIFDYWGQGTLVTVSS VL: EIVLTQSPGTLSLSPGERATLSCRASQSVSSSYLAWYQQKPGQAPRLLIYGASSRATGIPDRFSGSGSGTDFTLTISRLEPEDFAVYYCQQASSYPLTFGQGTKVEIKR . Reported pKd: 7.37

All values here come from patent US12319739.
